Assay: Human HepG2 cell viability assay in 384 well format
Format: toxicity, cell-based
Set-up: dose 125 nL, time 70.5 hour; concentration not given beside the values
Conditions: HepG2 cells, read-out: Inhibition
Items are presented alongside their recorded cytotoxicity at 70.5 h.
Express your answer in %, writing the number without its unit.

>>> df
                            givensmiles             measurename  readingunit  resultnumber
0  CN(CCC(F)(F)F)Cc1nc2ccccc2c(=O)[nH]1  cytotoxicity at 70.5 h            %         -3.56

The reported cytotoxicity at 70.5 h of the molecule CCn1ccnc1CN1CCN(CCOc2ccccc2OC)CC1 was 7.36

The reported cytotoxicity at 70.5 h of the molecule Cc1cc(NC(=O)CN2CCn3c(nnc3C(C)C)C2)n(C)n1 was 34.7

Lookup result for Cc1cnc(C)c(N2C[C@H]3OC(=O)N(C4CCCC4)[C@H]3C2)n1 ; measured cytotoxicity at 70.5 h: -6.45

// sample CCC(CC)NC(=O)c1ncn2c1CN(CC)S(=O)(=O)c1ccccc1-2 , its cytotoxicity at 70.5 h was -12.8

The molecule listed as Cc1c2nnn(CC(=O)N(C)C)c(=O)c2nn1C has a reported cytotoxicity at 70.5 h of -8.25
